Provide the recorded Kd for the entries that follow.
ASSAY SYSTEM: FGFR3 (Homo sapiens, UniProt P22607)
Construct: made in house; host or cells: E. coli derived from BL21, infected with T7 phage
Sequence (P22607 23-806): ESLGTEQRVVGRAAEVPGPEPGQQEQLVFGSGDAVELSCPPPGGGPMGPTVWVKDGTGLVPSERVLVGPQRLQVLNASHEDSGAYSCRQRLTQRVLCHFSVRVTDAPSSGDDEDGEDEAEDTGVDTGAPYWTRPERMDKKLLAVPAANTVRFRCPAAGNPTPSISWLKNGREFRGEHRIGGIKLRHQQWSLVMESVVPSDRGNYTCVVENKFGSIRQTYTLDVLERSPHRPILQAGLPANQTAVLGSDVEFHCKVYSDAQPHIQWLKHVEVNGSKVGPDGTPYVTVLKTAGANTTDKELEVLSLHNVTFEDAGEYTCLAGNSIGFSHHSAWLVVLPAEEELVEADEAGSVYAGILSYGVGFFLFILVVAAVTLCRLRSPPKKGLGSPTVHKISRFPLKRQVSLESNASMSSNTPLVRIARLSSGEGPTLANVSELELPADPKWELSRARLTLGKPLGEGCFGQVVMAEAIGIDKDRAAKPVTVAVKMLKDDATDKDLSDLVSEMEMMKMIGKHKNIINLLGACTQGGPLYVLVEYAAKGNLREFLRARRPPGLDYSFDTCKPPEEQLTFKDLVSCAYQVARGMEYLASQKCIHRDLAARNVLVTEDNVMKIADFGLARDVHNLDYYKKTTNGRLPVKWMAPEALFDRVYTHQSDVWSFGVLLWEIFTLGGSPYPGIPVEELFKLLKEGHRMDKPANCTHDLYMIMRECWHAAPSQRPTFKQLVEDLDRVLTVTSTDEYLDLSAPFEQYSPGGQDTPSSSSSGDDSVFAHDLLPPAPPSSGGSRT
METHOD NOTES: Kinase binding assay (kinase-tagged T7 phage, qPCR), Kd
MEASUREMENT PARAMETERS: read-out: FGFR3 (Kd nM)

Return the recorded Kd value; entry: "Cc1cccc(C(=O)N2CCOc3ncc(-c4n[nH]c5ccc(O[C@H](C)c6c(Cl)cncc6Cl)cc45)cc32)n1"
250 to 1000 nM

For "C[C@@H](Oc1ccc2[nH]nc(-c3ccc(C(N)=O)nc3)c2c1)c1c(Cl)cncc1Cl" , write its Kd.
0.1 to 100 nM

Quick one: give measured Kd for "COc1cc(-c2n[nH]c3cc(OC)c(O[C@H](C)c4c(C)cnnc4C)cc23)cc(C#N)n1"
100 to 250 nM

Report measured Kd; entry is "CC(C)N1CCC(Oc2ccc(-c3n[nH]c4ccc(O[C@H](C)c5c(Cl)cncc5Cl)cc34)cc2C#N)CC1"
0.1 to 100 nM

State its Kd: "COc1cc(-c2n[nH]c3ccc(O[C@H](C)c4c(Cl)cncc4Cl)cc23)cc(C#N)c1OC1CCN(C(C)C)CC1"
250 to 1000 nM

Given the compound "CC(C)OC(=O)Nc1ccc(-c2n[nH]c3ccc(O[C@H](C)c4c(Cl)cncc4Cl)cc23)cn1" , write its reported Kd.
0.1 to 100 nM
